Source of measurements: patent US5840917A

Hi there, I'd appreciate the recorded pIC50 for every entry that follows.
Target: Helicobacter pylori-derived urease (Helicobacter pylori, UniProt P69996)
Construct: an urease solution prepared from Helicobacter pylori; endogenous in cells
Sequence (P69996 whole entry, looked up): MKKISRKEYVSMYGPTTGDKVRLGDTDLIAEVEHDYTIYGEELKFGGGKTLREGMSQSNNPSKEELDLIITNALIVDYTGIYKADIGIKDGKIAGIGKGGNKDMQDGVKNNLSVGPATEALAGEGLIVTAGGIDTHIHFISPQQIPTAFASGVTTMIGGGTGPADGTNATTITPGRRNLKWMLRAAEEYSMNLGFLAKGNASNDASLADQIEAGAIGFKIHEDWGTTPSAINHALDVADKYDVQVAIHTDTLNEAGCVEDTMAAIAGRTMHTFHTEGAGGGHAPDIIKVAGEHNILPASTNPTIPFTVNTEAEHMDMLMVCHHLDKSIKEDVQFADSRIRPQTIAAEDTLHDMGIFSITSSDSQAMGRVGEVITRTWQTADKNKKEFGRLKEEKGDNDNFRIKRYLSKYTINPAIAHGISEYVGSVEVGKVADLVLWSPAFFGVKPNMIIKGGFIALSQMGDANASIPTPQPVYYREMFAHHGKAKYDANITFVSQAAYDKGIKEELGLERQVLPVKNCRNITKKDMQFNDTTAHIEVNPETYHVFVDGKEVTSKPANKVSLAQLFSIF
Assay: Screening of urease inhibitors (ammonia yield from urea)
Type: biochemical
One number for each entry, as −log10 of the molar value.

# batch size: 3; output pIC50 per entry
1. N#Cc1ccc(C(=O)NP(N)(N)=O)s1 [Example 12]
2. NP(N)(=O)NC(=O)c1cc(Cl)cs1 [Example 84]
3. Cc1ccc(C(=O)NP(N)(N)=O)cc1 [Reference Example 15, N-(Diaminophosphinyl)-4-methylbenzamide]

1. 8.44
2. 8.60
3. 7.77

Hi! Can you tell me pIC50 for each of these molecules?
1. CC(=O)c1ccc(C(=O)NP(N)(N)=O)s1 [Example 17]
2. NP(N)(=O)NC(=O)C=Cc1ccccc1[N+](=O)[O-] [compound 33, N-(Diaminophosphinyl)-2-nitrocinnamamide]

8.09
8.08

Provide pIC50 for all items below, preserving their order.
1. Cc1ccc(C(=O)NP(N)(N)=O)s1 [Example 3]
2. NP(N)(=O)NC(=O)c1ccccc1F [Reference Example 16, N-(Diaminophosphinyl)-2-fluorobenzamide]
3. NP(N)(=O)NC(=O)CSc1nc2cc(Cl)ccc2s1 [Example 65]
4. N#Cc1ccc(C(=O)NP(N)(N)=O)cc1 [Reference Example 17, N-(Diaminophosphinyl)-4-cyanobenzamide]
5. Cc1csc(C(=O)NP(N)(N)=O)c1Cl [Example 90]
6. Cc1cc(C)c(C(=O)NP(N)(N)=O)s1 [Example 91]
7. NP(N)(=O)NC(=O)c1sccc1C(F)F [Example 19]
8. NP(N)(=O)NC(=O)c1csc([N+](=O)[O-])c1 [Example 21]

1. 8.26
2. 8.57
3. 8.64
4. 8.27
5. 8.20
6. 8.20
7. 8.34
8. 8.37
